// data source = patent US20120046357A1

# Test system: NF-κB
# experiment: NF-κB/293/GFP reporter cell assay (TNF-α induced GFP expression)
# Assay type: cell-based
# measurement_conditions: Homo sapiens, HEK293, 293 cells, pTRH1-NF-κB-dscGFP reporter, 2 h pretreatment, 20 ng/ml TNF-α 18 h; read-out: NF-KB/293/GFP EC50
Consider the cut-off 5 µM. If the recorded EC50 is strictly smaller, the label is Y; if not, the label is N.

Reference set (8 entries):
> print(dat)
                                   compound  target.or.test.system  group
1  O=C(NC1=CC(=O)C2OC2C1O)c1cc2cc(Br)ccc2cc1O (racemic) [Example 15]                  NF-κB      Y
2  O=C(NC1=CC(=O)C2OC2C1O)c1cc2ccccc2cc1O (racemic) [Example 7]                  NF-κB      Y
3  O=C(NC1=CC(=O)C2OC2C1O)c1ccc(Cl)cc1O (racemic) [Example 2]                  NF-κB      N
4  COc1c(C(=O)NC2=CC(=O)C3OC3C2O)ccc(F)c1F (racemic) [Example 16]                  NF-κB      Y
5  O=C(NC1=CC(=O)C2OC2C1O)c1cc(Br)ccc1O (racemic) [Example 9]                  NF-κB      N
6  Cc1cc(Br)cc(C(=O)NC2=CC(=O)C3OC3C2=O)c1O (racemic) [Example 14]                  NF-κB      Y
7  COc1ccc(C(=O)NC2=CC(=O)C3OC3C2O)c(O)c1 (racemic) [Example 5]                  NF-κB      N
8  CN(C)c1ccc(C(=O)NC2=CC(=O)C3OC3C2=O)c(O)c1 (racemic) [Example 18]                  NF-κB      Y

Enquiry: Identify whether the compound COc1cc(N(C)C)ccc1C(=O)NC1=CC(=O)C2OC2C1O (racemic) [Example 20] records EC50 below 5 µM.
Return: Y

Enquiry: Is EC50 of Cc1cc(Br)cc(C(=O)NC2=CC(=O)C3OC3C2O)c1O (racemic) [Example 13] strictly below 5 µM?
Return: N

Enquiry: Field: below-cutoff. Rule: recorded EC50 strictly less than 5 µM. Subject: O=C(NC1=CC(=O)C2OC2C1O)c1ccc(C(F)(F)F)cc1O (racemic) [Example 1]
Return: Y
